- Experimental system: Heat shock factor protein 1 (Mus musculus, UniProt P38532)
- Sequence (P38532 whole entry): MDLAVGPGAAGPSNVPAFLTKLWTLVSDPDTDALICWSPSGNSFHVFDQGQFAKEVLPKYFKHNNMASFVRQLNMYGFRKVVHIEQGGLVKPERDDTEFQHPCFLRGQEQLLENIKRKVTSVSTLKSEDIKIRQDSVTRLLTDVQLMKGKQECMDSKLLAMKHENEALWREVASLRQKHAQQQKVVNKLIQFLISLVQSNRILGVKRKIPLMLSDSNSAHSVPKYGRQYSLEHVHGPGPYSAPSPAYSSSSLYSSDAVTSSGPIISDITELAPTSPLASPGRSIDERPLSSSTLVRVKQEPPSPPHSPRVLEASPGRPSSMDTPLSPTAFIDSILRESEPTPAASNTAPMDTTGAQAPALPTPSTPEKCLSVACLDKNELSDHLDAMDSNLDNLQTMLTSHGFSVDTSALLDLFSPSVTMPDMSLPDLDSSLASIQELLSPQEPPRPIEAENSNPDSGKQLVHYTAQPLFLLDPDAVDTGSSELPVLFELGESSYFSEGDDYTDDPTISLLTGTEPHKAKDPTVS
- Assay explanation: HSF1 potentiators in luciferase reporter cells, confirmation, cell-based, NIH3T3, luminescence, dose retest (AID 435004);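 further: stress induced by proteasome inhibitor MG132 added 30 min after compound; luciferase reporter driven by HSF1 response element in NIH3T3 cells; actives raise luminescence as potentiators of the MG132 stress response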
- Type: functional
The source made the active and inactive calls. No stated cut-off is given here; in the data, actives have a measured EC50 and inactives only a lower limit.
Classes used: active, inactive

Molecule: CC(c1ccccc1)N1CC(C(=O)N2CCN(c3ccc(F)cc3)CC2)CC1=O (stereo unspecified)
Discrete label: inactive

Molecule: CC(C)(C)NC(=O)CSc1ncnc2c1nnn2Cc1ccccc1Cl
Discrete label: active

Molecule: Cc1onc(-c2ccccc2)c1NC(=O)N(CCC#N)Cc1ccccc1
Discrete label: inactive

Molecule: CC(C)NCC(O)COCc1ccc(Cl)cc1 (stereo unspecified)
Discrete label: inactive

Molecule: CCOC(=O)CC(NS(=O)(=O)c1ccc2ncc(C(=O)O)c(O)c2c1)c1ccc(OCC)c(OC)c1 (stereo unspecified)
Discrete label: inactive

Molecule: Cc1ccn(CC(=O)N2CCCC(N3CCN(c4ccc(F)cc4)CC3)C2)n1 (stereo unspecified)
Discrete label: inactive

Molecule: COc1ccccc1NC(=O)Nc1nc(CC(=O)N2CCN(c3ccccc3)CC2)cs1
Discrete label: inactive

Molecule: O=C(CCC1CCCC1)/N=C1\SC2CS(=O)(=O)CC2N1c1ccccc1F (stereo unspecified)
Discrete label: inactive

Molecule: COc1ccc(/C=N/Nc2cc(OC)ncn2)cc1
Discrete label: inactive

Molecule: Nc1nnnn1/N=C\c1ccc(Cl)c([N+](=O)[O-])c1
Discrete label: inactive

Molecule: CC(=O)Nc1ccc(NC(=O)c2ccc(NS(=O)(=O)c3cc(C(C)(C)C)cc(C)c3C)cc2)cc1
Discrete label: active

Values compiled from ChEMBL document CHEMBL1201862.
